All values here come from the DeepSol protein solubility set.

assay: soluble on expression in E. coli; label from the status in PepcDB or PDB records
Readout: soluble on expression in E. coli

Chain	Readout Value
MAGGGAGDPGLGAAAAPAPETREHLFKVLVIGELGVGKTSIIKRYVHQLFSQHYRATIGVDFALKVLNWDSRTLVRLQLWDIAGQERFGNMTRVYYKEAVGAFVVFDISRSSTFEAVLKWKSDLDSKVHLPNGSPIPAVLLANKCDQNKDSSQSPSQVDQFCKEHGFAGWFETSAKDNINIEEAARFLVEKILVNHQSFPNEENDVDKIKLDQETLRAENKSQCCLEHHHHHH	not soluble
MNLNFSLLDEPIPLRGGTILVLEDVCVFSKIVQYCYQYEEDSELKFFDHKMKTIKESEIMLVTDILGFDVNSSTILKLIHADLESQFNEKPEVKSMIDKLVATITELIVFECLENELDLEYDEITILELIKSLGVKVETQSDTIFEKCLEILQIFKYLTKKKLLIFVNSGAFLTKDEVASLQEYISLTNLTVLFLEPRELYDFPQYILDEDYFLITKNMV	not soluble
MSVFHDEVEIEDFEFDEEKDVYHYPCPCGDRFEIPREMLEMGEDVAQCPSCSLLIRVIYDPEDFVKLETISTSKPIAEPV	not soluble
MSDLSAQLSAFKNKIKSGPSVIVPRKATFTQSPSSPLSSSTTTTTSKNDANVKKRSTTDSVTRVLKKQKANMGEMTGSHLSTQLHLAVEYIKEHDQPISVEKLQNYLSFDISHTLLPLLNEIDRVKYDESKGTLEYVSLHNIRSSDDLLEFLRRQTTFKGTSVKELKDGWAGCVAAIDELESQGKILVLRNKKENAPRLVWANNGGELGYIDTEFKDMWDQVKLPEPDVLYQKLLDQGLKPTGADPNLIKKQPQQKEKKQKKARRGKITNTHMKGILKDYSQLV	soluble
MFEAKLANAGLLKKIVESIKDLVTDAPFDCSETAMSLQAMDSSHVALVSLKLEVGLFDTYRCDRTINLGLSLANMSKALKCANNDDTCMLKYEENEGDSIIFTFADPKRDKTQDVTVKMMDIDSEHLGIPDQDYAVVCEMPAGEFQKTCKDLSTFSDSLNITATKAGIVFTGKGDIGSSVVTYSPSSNTDDETEAVTLEVKDPVNVNFSIKYMNQFTKATALSDRVRLSLCNDVPVVVEYPIEENGYLRFYLAPKIDDDENMD	soluble
MSLILVTGHRGFIGSHIYSYFNGNSEVYGFDIGDKLEDRRYDVIIHMAARGLIRKSIEFPYDYFQDDLSLVVRFLELARKNDSVFIFPSSGSTAEPTNPYSLAKKNAEEWIRLYGKLYGLKYYILRFFNIYGDGAKKGAVYLFTKAALSGEEAIVYGDGSHIRDFLYVGDVPITIERILNEKYRTGEYEVGSGKGTSVNDLISLIEKVTGKKIRTRHEDYIVPEASELVAKNTIVKNPTPLEVGVERVMEFILKDNEGHHHHHH	soluble
MAEHECVQLVPIFSELGSEQLDIIESIVRHHHYPAGSTLFGADDPLDSLMIVANGQVKVYQLAANGREQLLYLLQTGDIDGEAALFENQRRTSFGEALVPTDVCSIRRSDFQDLMQKYPSISINVLNVFGKRLNQLERQTTSTATESVEARLANYITETAAALKTDTFKLPLKKKDLATFLGTTPESISRKLALFERQGLITQKPGKVIEINDADQLLLTE	soluble
